System: T-47D breast
assayInfo: NCI tumour cell line growth inhibition, 48 h

- compound: "Cc1ccc2c(=O)cc(Cc3cccs3)[nH]c2n1"
  TGI: "> 100 µM"
- compound: "COc1cc(=O)c2c(O)c3c(O)oc(C)cc3c(OC)c2c1"
  TGI: "90.8 µM"
- compound: "COc1ccc(NC(=S)N/N=C\\c2ccc(NC(C)=O)cc2)cc1"
  TGI: "> 100 µM"
- compound: "CCOc1ccc(N/C(=C(/C(Cl)=C(/Cl)Nc2ccccc2)[N+](=O)[O-])n2nnc3ccccc32)cc1"
  TGI: "> 100 µM"
- compound: "CN(C)CCCC1c2ccccc2Oc2ccc(C(F)(F)F)cc21 (stereo not given)"
  TGI: "30.5 µM"
- compound: "O=C(c1ccccc1)c1ccc(N2C(=O)/C(=C/Cc3ccco3)N=C2c2ccccc2)c(N2C(=O)/C(=C/Cc3ccco3)N=C2c2ccccc2)c1"
  TGI: "> 100 µM"
- compound: "O=C1C(Cl)=C(Sc2nnc3c4ccccc4c4ccccc4c3n2)C(=O)c2ccccc21"
  TGI: "19.2 µM"
- compound: "CCOP(=O)(C=C=C1CCC2[C@@H]3CCc4cc(OC)ccc4C3CC[C@]12C)OCC (stereo not given in full)"
  TGI: "26.6 µM"
- compound: "O=C1c2cccnc2S(=O)(=O)N1c1ccc(Oc2ccccc2)cc1"
  TGI: "> 100 µM"
- compound: "O=C(NC(Cl)(C(F)(F)F)C(F)(F)F)c1ccc(F)cc1"
  TGI: "> 100 µM"
- compound: "O=C1C(C(O)(C(F)(F)Cl)C(F)(F)Cl)CCCC1C(O)(C(F)(F)Cl)C(F)(F)Cl (stereo not given)"
  TGI: "> 10 µM"
- compound: "O=C(O)CSCc1cc2c(O)c(c1)Cc1cc(CSCC(=O)O)cc(c1O)Cc1cc(CSCC(=O)O)cc(c1O)Cc1cc(CSCC(=O)O)cc(c1O)C2"
  TGI: "> 100 µM"
- compound: "O=C(c1ccco1)c1nc2cc(C(F)(F)F)ccc2nc1C(F)(F)F"
  TGI: "> 100 µM"
- compound: "COc1cc(/C=C2\\C[C@H]3[C@@H]4CC=C5C[C@@H](O)CC[C@]5(C)[C@H]4CC[C@]3(C)[C@H]2O)ccc1OCCN1CCCC1"
  TGI: "> 50 µM"
- compound: "CCN(CC)CCNc1ccc(C)c2sc3cc(Cl)ccc3c(=O)c12"
  TGI: "4.02 µM"
- compound: "O=C(O)CSC(CC1(c2ccc(Cl)cc2)NC(=O)CS1)c1ccc(Cl)cc1 (stereo not given)"
  TGI: "> 100 µM"
- compound: "C[Si](C)(C)C#Cc1cc(-c2nc3ccccc3s2)ccc1N"
  TGI: "> 100 µM"
- compound: "NS(=O)(=O)OCC1OC(n2cnc3cncnc32)C(O)C1O (stereo not given)"
  TGI: "0.0665 µM"
- compound: "CC(=O)N1N=C(c2ccc3ccccc3c2O)CC1c1cccs1 (stereo not given)"
  TGI: "> 100 µM"
- compound: "O=C(NC(=S)Nc1ccc2c(c1)Sc1ccccc1O2)c1ccc([N+](=O)[O-])cc1"
  TGI: "> 100 µM"
